Hey, just so you know, these numbers are from ChEMBL document CHEMBL1125999.

target: D(2) dopamine receptor (Bos taurus, UniProt P20288); test: In vitro binding affinity towards Dopamine D2 receptor using [3H]spiperone as radioligand
Sequence (P20288 whole entry): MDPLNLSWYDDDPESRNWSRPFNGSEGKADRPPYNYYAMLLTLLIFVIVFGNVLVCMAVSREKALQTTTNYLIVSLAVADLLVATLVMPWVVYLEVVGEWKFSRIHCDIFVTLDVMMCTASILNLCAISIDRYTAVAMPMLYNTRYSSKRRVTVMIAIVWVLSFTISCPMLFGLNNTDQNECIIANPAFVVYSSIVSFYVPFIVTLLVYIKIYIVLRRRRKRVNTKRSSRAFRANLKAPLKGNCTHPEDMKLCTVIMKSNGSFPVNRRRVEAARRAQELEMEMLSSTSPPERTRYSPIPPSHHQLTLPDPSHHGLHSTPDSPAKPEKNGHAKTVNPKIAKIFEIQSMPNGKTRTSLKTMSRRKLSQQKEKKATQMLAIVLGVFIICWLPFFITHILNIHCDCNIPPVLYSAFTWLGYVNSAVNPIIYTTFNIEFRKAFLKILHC
# IC50 listing for each entry below
Write the number in µM without appending the unit.

Would you please look over these solved cases?
CCCN(CCC)CCc1ccc2[nH]c(=O)c(=O)[nH]c2c1    3
CCCN(CCC)CCc1ccc2nn[nH]c2c1    50

Look up IC50 for this compound: `CCCN(CCC)CCc1ccc2[nH]c(S)nc2c1`
1

---

As shown below, each of these compounds has a reported pKa value.
assay: Dissociation constant was evaluated; format: physicochemical
A bare number is all that is needed in reply.

CCCN(CCC)CCc1ccc2[nH]c(=O)c(=O)[nH]c2c1    9.5

Switching to the query record.
# pKa lookup, item `CCCN(CCC)CCc1ccc2[nH]c(S)nc2c1`
9.8
